# system_under_test: Mu-type opioid receptor (Bos taurus, UniProt P79350)
# Sequence (P79350 whole entry): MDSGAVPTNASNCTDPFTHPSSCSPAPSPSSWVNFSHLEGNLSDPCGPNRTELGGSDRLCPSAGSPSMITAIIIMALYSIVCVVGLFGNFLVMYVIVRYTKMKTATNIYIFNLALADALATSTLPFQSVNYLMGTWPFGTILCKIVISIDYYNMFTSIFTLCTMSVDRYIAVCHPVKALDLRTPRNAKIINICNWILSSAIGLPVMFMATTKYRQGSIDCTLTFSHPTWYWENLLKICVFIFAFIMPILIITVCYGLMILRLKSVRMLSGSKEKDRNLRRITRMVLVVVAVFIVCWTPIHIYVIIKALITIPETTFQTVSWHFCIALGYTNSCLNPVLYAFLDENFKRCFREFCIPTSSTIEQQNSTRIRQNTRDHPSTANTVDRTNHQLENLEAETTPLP
pKd: −log10 of the molar value.
measurement_type: pKd

structure_smiles_string: C[C@@]12Oc3c(O)ccc4c3[C@@]13CCN(CC1CC1)[C@H](C4)[C@]3(NC(=O)CSSCC(=O)N[C@@]13CCC(=O)[C@]4(C)Oc5c(O)ccc6c5[C@@]41CCN(CC1CC1)[C@@H]3C6)CCC2=O
data_value: 9.40

----------
# test_details: Inhibitory activity against Opioid receptor delta 1 binding to bovine striatal membrane
measurement_type: IC50 (nM)

structure_smiles_string: O=C(CSSCC(=O)N[C@@]12CCC(=O)[C@@H]3Oc4c(O)ccc5c4[C@@]31CCN(CC1CC1)[C@@H]2C5)N[C@@]12CCC(=O)[C@@H]3Oc4c(O)ccc5c4[C@@]31CCN(CC1CC1)[C@@H]2C5
measurement_type: IC50
unit_text: nM
data_value: 24
--
structure_smiles_string: CN1CC[C@]23c4c5ccc(O)c4O[C@H]2C(=O)CC[C@@]3(NC(=O)CSSCC(=O)N[C@@]23CCC(=O)[C@@H]4Oc6c(O)ccc7c6[C@@]42CCN(C)[C@@H]3C7)[C@H]1C5
measurement_type: IC50
unit_text: nM
data_value: 11
